assay: Approximate solubility of Form A: saturated solutions, gravimetric determination after solvent removal; format: physicochemical; conditions: organic solvent or mixture, thermodynamic from solid, acetonitrile, read-out: Solubility
QUANTITY MEASURED: solubility

I am curious: what solubility value has been reported for CC(C)COc1ccc(CNC(=O)N(Cc2ccc(F)cc2)C2CCN(C)CC2)cc1.CC(C)COc1ccc(CNC(=O)N(Cc2ccc(F)cc2)C2CCN(C)CC2)cc1.O=C(O)C(O)C(O)C(=O)O [Form A] ?
~2000 µg/mL

---

assay: Approximate solubility of the crystalline free base in solvents at room temperature; type: physicochemical; details: water, read-out: Solubility
QUANTITY MEASURED: solubility

I am curious: what solubility value has been reported for CC(C)COc1ccc(CNC(=O)N(Cc2ccc(F)cc2)C2CCN(C)CC2)cc1 [crystalline free base of formula I] ?
< 4000 µg/mL
